test system: HCT-116 colon; experiment: NCI-60 one-dose screen, 48 h (100 = growth as untreated, 0 = no growth, -100 = all killed); conditions: 10 µM
Compounds without any hit were thinned out: in the full panel of roughly 83,000, 20% have a hit.
Param label: returns met when growth < 70%, returns not met otherwise, including exact equality.

Worked examples, 3 compounds total:
Molecule smiles: COc1ccc(C(=O)/C=C/c2ccc(OCc3ccc(Cl)cc3)cc2)cc1OC
Category label: not met
//
Molecule smiles: CC(=O)/C=C/c1ccc(N(CCO)Cc2ccc(C(C)(C)C)cc2)cc1
Category label: met
//
Molecule smiles: CC(=O)/C=C/c1ccc(OCc2ccc(Cl)cc2)cc1
Category label: not met

I wonder whether O=C(/C=C/c1cccc(Oc2ccc(Cl)cc2)c1)c1ccccc1 has growth below 70%. Can you tell?
met

----------
Reported growth is given for each of the following compounds.
tested on: SW-620 colon; assay: NCI-60 one-dose screen, 48 h (100 = growth as untreated, 0 = no growth, -100 = all killed); details: 10 µM unless noted
The panel holds about 83,000 compounds, 20% with a hit somewhere; the sample as a whole holds those more often.
Please give a number only; it is taken to be in %.

Molecule smiles: Cc1ccc2nc3ccccc3c(NCc3ccc(Cl)cc3)c2c1
Measurement unit: %
growth: 32.1

Molecule smiles: CN1Cn2c(ccc2C(F)(F)F)C(=O)CS1(=O)=O
Measurement unit: %
growth: 104

Molecule smiles: COc1cc(Nc2nc3ccccc3cc2C(=O)Nc2ccc(F)c(F)c2)cc(OC)c1OC
Measurement unit: %
growth: 23

Molecule smiles: O=C1/C(=C/c2cn(-c3ccccc3)nc2-c2ccccc2)SC(=S)N1c1ccc(Cl)cc1
Measurement unit: %
growth: 84.4

What growth appears in the records for this compound with SW-620 colon? C=CCNC(=O)Cc1c(-c2ccc(OC)cc2)oc2c(OC)c3c(c(OC)c12)OCO3
103

What growth appears in the records for this compound with SW-620 colon? Cc1n(Cc2ccc3ccccc3c2)c(Cl)c(Cl)[n+]1Cc1ccc2ccccc2c1
40.5

What growth appears in the records for this compound with SW-620 colon? COc1cc(NS(=O)(=O)C(C)C)cc(-c2cc(-c3ccc(N4CCNCC4)cc3)cnc2N)c1
82

What growth appears in the records for this compound with SW-620 colon? Nc1n[nH]c2cccc(C#Cc3cccc(C(=O)Nc4ccc(CN5CCOCC5)c(C(F)(F)F)c4)c3)c12
49.3

What growth appears in the records for this compound with SW-620 colon? O=C(Nc1ccc2ccccc2c1)c1cc2ccccc2cc1O
103

What growth appears in the records for this compound with SW-620 colon? O=C(CCl)n1nnnc1Cc1ccccc1
101

----------
tested on: MALME-3M melanoma; assay: NCI-60 one-dose screen, 48 h; conditions: 10 µM unless noted
The panel holds about 83,000 compounds, 20% with a hit somewhere; the sample as a whole holds those more often. Activity calls are given as the source filed them. How the source made its calls: active means growth percent below 10; inactive means the rest.
Form entry, call: pick from true (1) for active, false (0) for inactive

Compound: CC/C(=C(/c1ccc(Cl)cc1)c1ccc(OCCN2CCOCC2)cc1)c1ccccc1
Category label: false (0)
--
Compound: C[N+]1=C(/C=C\C=C\c2ccccc2)C(C)(C)c2ccccc21
Category label: true (1)
--
Compound: O=C(/C=C/c1cccs1)Nc1ncc(Cc2ccc(Cl)c(Cl)c2)s1
Category label: false (0)
--
Compound: Clc1cccc(Nc2ncnc3ccc(-c4cncc(-n5cnnn5)c4)cc23)c1
Category label: false (0)
--
Compound: CCCCC(NC(=O)CN1C(=O)/C(=C/C(C)=C/c2ccccc2)SC1=S)C(=O)O (configuration not stated)
Category label: false (0)

Recorded call for Cc1ccc(C(=O)N(CCCN)[C@@H](c2nc3cc(Cl)ccc3c(=O)n2Cc2ccccc2)C(C)C)cc1 ?
true (1)

Recorded call for COc1ccc(Cn2cc(C(=O)Nc3cccnc3Nc3ccccc3)nn2)cc1 ?
false (0)

Recorded call for COC(=O)c1nc(-c2ccccc2)oc1S(=O)(=O)N(C)CCO ?
false (0)

----------
System: SN12C renal
Experiment: NCI-60 one-dose screen, 48 h (100 = growth as untreated, 0 = no growth, -100 = all killed)
Conditions: 10 µM unless noted
Method: Growth inhibition of the SN12C human tumor cell line is measured as a screen for anti-cancer activity. Cells are grown in 96 well plates and exposed to the test compound for 48 hours. Compounds are tested at a single concentration, which is 10^-5 M for most compounds. The reported endpoint is percent growth (GI% or GIPRCNT), where numbers from 0 - 100% represent growth inhibition, and numbers from -100% - 0 represent cell death. For example, a value of 40 represents 60% growth inhibition. […]
This is part of a sample that, as a whole, favours compounds with a hit. Of some 83,000 tested, about 20% had one in any assay. Calls of active or inactive are those of the source. Rule for the calls: active = growth percent below 10; inactive = the rest.
Property name: growth

Worked cases, answers included:
Molecule: CC12CCC(C(=O)CC1=O)C2(C)C (stereo not given)
growth: 102% (inactive)

Molecule: O=C(NCCCN1CCCCC1)c1ccc(-c2nc3ccc4[nH]ncc4c3c3c2CCCC3)cc1
growth: 50.4% (inactive)

Molecule: COc1cc(/C=C2\C(=O)N(CCCCn3c4ccccc4c(=O)c4ccccc43)c3ccccc32)cc(OC)c1O
growth: 71.1% (inactive)

Molecule: CCOc1ccccc1NC(=O)c1cc2ccccc2cc1O
growth: 42.8% (inactive)

Molecule: N#C/C(=C\c1ccc(Br)cc1)n1nnc2c(F)cccc21
growth: -1.81% (active)

Can you look up the measured growth of CC1(C)C(N)=Nc2cc(OCCCCN3Cc4ccccc4C3)c(OCC3CC3)cc21 for me?
81.9% (inactive)

Can you look up the measured growth of CCCCC1=C(Br)C(=O)c2nc(C)ccc2C1=O for me?
91.6% (inactive)

Can you look up the measured growth of N#Cc1c(-c2cccc(F)c2)cc(-c2cccnc2)[nH]c1=O for me?
96.4% (inactive)

Can you look up the measured growth of O=S(=O)(O)c1ccc(N=Nc2ccc(N=Nc3cccc4ccccc34)c(S(=O)(=O)O)c2)cc1 for me?
102% (inactive)

Can you look up the measured growth of COc1ccc(-c2nn3c(-c4cc(F)c(Cl)cc4Cl)nnc3s2)cc1 for me?
72.5% (inactive)

----------
tested on: SF-539 CNS; assay: NCI-60 one-dose screen, 48 h (100 = growth as untreated, 0 = no growth, -100 = all killed); conditions: 10 µM unless noted
The panel holds about 83,000 compounds, 20% with a hit somewhere; the sample as a whole holds those more often.
Reported growth is given for each of the following compounds.
Please give a number only; it is taken to be in %.

Compound: CC(=O)c1nn(-c2ccccc2)/c(=N/N=Cc2cn(-c3ccccc3)nc2-c2cc3ccccc3oc2=O)s1
Property name: growth
Measurement unit: %
Reading: 99.6
//
Compound: CCCCCCCCN(CCCCCCCC)CC(O)c1cc(Cl)ccc1OC (centres undefined)
Property name: growth
Measurement unit: %
Reading: 77.8
//
Compound: Cc1nc2sc(C(=O)Nc3cccc4ncccc34)c(N)c2cc1C(C)O (centres undefined)
Property name: growth
Measurement unit: %
Reading: 82.4
//
Compound: CCN(C(=O)N1CCN(c2cc3c(cc2F)c(=O)c(C(=O)O)cn3C2CC2)CC1)c1nc(-c2ccccc2)cs1
Property name: growth
Measurement unit: %
Reading: 8.47
//
Compound: CCN1CCN(CC(=O)Nc2nc3ccc(NCc4ccc(C)cc4)cc3s2)CC1
Property name: growth
Measurement unit: %
Reading: 22.2

Can you look up the measured growth of Cc1c(C(C)(C)O)cn2ncnc(Oc3ccc(NC(=O)Nc4ccc(Cl)c(C(F)(F)F)c4)cc3)c12 for me?
25.9

Can you look up the measured growth of COc1ccc(C/C(C)=C(/c2ccc(OCCN3CCCC3)cc2)c2ccc(OC(=O)NCc3ccccc3)cc2)cc1 for me?
82.5

Can you look up the measured growth of NS(=O)(=O)c1ccc(C(=O)N=Nc2c(O)[nH]c3c(F)cccc23)cc1 for me?
94.8

Can you look up the measured growth of COc1ccc(/C(C)=C(\c2ccc(OCCN3CCCCCC3)cc2)c2ccc(OC(=O)C3CCCCC3)cc2)cc1 for me?
-85.4

----------
test system: MALME-3M melanoma; assay: NCI-60 one-dose screen, 48 h (100 = growth as untreated, 0 = no growth, -100 = all killed); details: 10 µM unless noted
About 83,000 compounds went through this panel and 20% of them were active in at least one assay; those are over-represented in the sample as a whole. Activity calls are given as the source filed them. How the source made its calls: active means growth percent below 10; inactive means the rest.
Reported growth is given for each of the following compounds.

Worked cases, answers included:
Compound: COc1ccc(/C=N/NC(=O)CN2CCN(c3cc4c(cc3F)c(=O)c(C(=O)O)cn4C3CC3)CC2)cc1O
growth: 109% (inactive)
//
Compound: Cc1cc(N2CCN(CC(=O)Nc3ccc4c(ccn4Cc4ccccc4)c3)CC2)nc(N2CCCCCC2)n1
growth: 18.2% (inactive)
//
Compound: COc1ccc(-c2cc3cnc4ccccc4c3oc2=O)cc1
growth: 97% (inactive)
//
Compound: CCCN1C(=O)/C(=c2\sc3n(c2=O)NC2C(N=3)N(CC)C(=O)N2CC)c2ccccc21 (stereo not drawn)
growth: 61.8% (inactive)
//
Compound: O=C1c2cc3c(cc2-c2c1c1ccc(Cl)cc1c(=O)n2CCCn1ccnc1)OCO3
growth: -24.6% (active)
//
Compound: COc1cc2ncnc(Nc3ccc(F)c(Cl)c3)c2cc1OCC(=O)N1CCCCC1
growth: 99.1% (inactive)
//
Compound: O=c1oc2c(Br)cc(Br)cc2cc1-c1cc(-c2ccc(-c3cc(-c4cc5cc(Br)cc(Br)c5oc4=O)nc(-c4cc5cc(Br)cc(Br)c5oc4=O)c3)cc2)cc(-c2cc3cc(Br)cc(Br)c3oc2=O)n1
growth: 92.6% (inactive)

Can you look up the measured growth of [2H]C([2H])([2H])Oc1cc(F)ccc1/C=C/C(=O)/C=C(/C=C/c1ccc(F)cc1OC([2H])([2H])[2H])OB(F)F for me?
33.1% (inactive)
